From: patent US8735388B2

target: Muscarine M1 (GPCR-A-MA-ACH M1) (Homo sapiens, UniProt P11229); construct: expressed in transfected cells; host or cells: CHO cells; test: Muscarine M1 cell-based functional assay (CHO cells, Ca2+ - FLIPR Fluorimetry); conditions: human M1, CHO cells; agonist mode, reference agonist acetylcholine; read-out: Cell funct. Musc. M1 Agonism pEC50 (converted)
Sequence (P11229 whole entry): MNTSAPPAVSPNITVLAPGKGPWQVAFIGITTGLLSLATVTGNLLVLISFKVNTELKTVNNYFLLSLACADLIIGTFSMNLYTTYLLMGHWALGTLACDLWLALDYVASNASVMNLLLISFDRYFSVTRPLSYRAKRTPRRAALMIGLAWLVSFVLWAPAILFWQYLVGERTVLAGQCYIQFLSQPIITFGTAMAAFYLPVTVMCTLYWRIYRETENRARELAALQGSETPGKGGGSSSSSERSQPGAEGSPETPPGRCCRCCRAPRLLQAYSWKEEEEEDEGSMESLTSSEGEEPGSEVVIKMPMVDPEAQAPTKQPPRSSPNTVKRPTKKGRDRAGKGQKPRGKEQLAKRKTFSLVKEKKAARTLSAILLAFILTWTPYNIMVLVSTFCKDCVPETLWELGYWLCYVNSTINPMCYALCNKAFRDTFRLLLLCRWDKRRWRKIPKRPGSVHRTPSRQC
A collection of compounds and their measured EC50
Give your result in nM as a bare value.

Example entries begin here.
compound="CCCCCc1c[nH]nc1C1=CCCN(C)C1 [Compound 9]" unit_label=nM measurement=126
compound="CC(C)CCSc1c[nH]nc1C1=CCCN(C)C1 [Compound 22S]" unit_label=nM measurement=398
compound="CCCCOc1c[nH]nc1C1=CCCN(C)C1 [Compound 33C]" unit_label=nM measurement=126
compound="CCCCC#Cc1c[nH]nc1C1=CCCN(C)C1 [Compound 45A]" unit_label=nM measurement=126
compound="CCCCCCOc1c[nH]nc1C1=CCCN(C)C1 [Compound 33B]" unit_label=nM measurement=100

Exercise: Fill in reported EC50 for this entry: C=CCCCSc1c[nH]nc1C1=CCCN(C)C1 [Compound 22L]
Key: 10

Exercise: For the compound CCCCC=Cc1c[nH]nc1C1=CCCN(C)C1 [Compound 47A] , give its measured EC50 value.
Key: 158
